test: xn = mol fraction of the nth substance listed; conditions: 318.15 K; 101 kPa; Liquid; x1 = 0.15
measure: mass density (kg/m3)

{"molecule": "CCOC(=O)c1ccccc1 [ethyl benzoate] + CCO", "mass density, kg/m3": 846.52}
{"molecule": "CCCC(=O)OCCC(C)C [3-methylbutyl butanoate] + CCO", "mass density, kg/m3": 792.4}
{"molecule": "CCOC(=O)Cc1ccccc1 [ethyl phenylacetate] + CCO", "mass density, kg/m3": 847.17}
{"molecule": "CCCCCCCC(=O)OCC [ethyl octanoate] + CCO", "mass density, kg/m3": 795.36}
{"molecule": "CCCCCC(=O)OCC [ethyl hexanoate] + CCO", "mass density, kg/m3": 793.14}
